PDE-4A (Homo sapiens) IC50 data
Sequence (P27815 342-704): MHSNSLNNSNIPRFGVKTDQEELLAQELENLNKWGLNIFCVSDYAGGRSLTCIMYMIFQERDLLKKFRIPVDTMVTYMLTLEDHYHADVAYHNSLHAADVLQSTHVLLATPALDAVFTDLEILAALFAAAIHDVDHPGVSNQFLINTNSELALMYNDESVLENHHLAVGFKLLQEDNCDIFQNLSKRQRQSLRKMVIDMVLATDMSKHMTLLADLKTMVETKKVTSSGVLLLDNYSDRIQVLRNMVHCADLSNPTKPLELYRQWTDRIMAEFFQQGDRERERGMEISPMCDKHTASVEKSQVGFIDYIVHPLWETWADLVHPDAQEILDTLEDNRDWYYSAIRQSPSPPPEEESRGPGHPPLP

{"structure.as.smiles": "CCOc1nc(N2CCNCC2)nc2c1sc1nc(-c3ccc[n+]([O-])c3)cc(C(F)(F)F)c12", "IC50": "2 to 50 nM"}
{"structure.as.smiles": "CCOc1nc(N2CCNCC2)nc2c1sc1nc(-c3cccc4ccccc34)nc(C)c12", "IC50": "2 to 50 nM"}
{"structure.as.smiles": "CCOc1ccc(-c2cc(CC)c3c(n2)sc2c(OCC)nc(N4CCNCC4)nc23)cc1", "IC50": "< 2 nM"}
{"structure.as.smiles": "CCOc1nc(N2CCNCC2)nc2c1sc1nc(-c3ccc(OC)c(OC)c3)cc(C)c12", "IC50": "2 to 50 nM"}

# input Form field: reported IC50 of CCOc1nc(N2CCNCC2)nc2c1sc1nc(-c3ccc(-c4cccnc4)cc3)nc(C)c12
# output < 2 nM
